System: T. cruzi-infected H9C2 cardiomyocytes, high-content imaging
Measurement Protocol: intracellular T. cruzi amastigote inhibition, imaging, H9C2 host cardiomyocytes, host toxicity (AID 1159565);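 note: infected cells incubated 72 h after plating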
Test Parameters: measured here: amastigotes per cell
pIC50: −log10 of the molar value.
Quick rule: pIC50 of at least 6 means y, below that means n.

Record excerpt, results attached:
{"Compound": "CNc1nc(C)nc(N2CCc3cc(C(=O)NCc4ccc(-c5nccn5C)cc4Cl)ccc32)n1", "Assigned Category": "n"}
{"Compound": "COc1ccc([N+](=O)[O-])cc1NC(=O)c1cc(Cl)ccc1O", "Assigned Category": "n"}
{"Compound": "CNS(=O)(=O)c1ccccc1Nc1nc(Nc2ccnn2C)ncc1Cl", "Assigned Category": "y"}
{"Compound": "Cc1nc2nc(C)c(Cc3ccc(C(C)C)cc3)c(=O)n2[nH]1", "Assigned Category": "y"}
{"Compound": "CC(CNS(=O)(=O)c1ccc(OC(F)F)cc1)c1ccc(NC(=O)c2ccncc2)cc1 (stereo not given)", "Assigned Category": "y"}
{"Compound": "Cc1cc(Oc2cc(Cl)c(Cl)cc2Cl)n2ncnc2n1", "Assigned Category": "n"}
{"Compound": "COc1ccccc1C=CCN1C[C@H]2CCC[C@@H](C1)C2(O)c1cccnc1 (stereo not given in full)", "Assigned Category": "y"}
{"Compound": "CC(=O)Nc1ccc(Nc2nccc(-c3cnn4ncccc34)n2)cc1C(F)(F)F", "Assigned Category": "y"}
{"Compound": "Cc1cccnc1NC(=O)c1cccc(OCc2c(C)noc2C)c1", "Assigned Category": "n"}
{"Compound": "CN(Cc1ccc(F)cc1)c1ccc(OCC(=O)N2CCCCC2c2cccnc2)nn1 (stereo not given)", "Assigned Category": "y"}

Enquiry: Quick check: does CC(C(=O)Nc1ccc(Br)cc1)N1CCN(c2ccc([N+](=O)[O-])cc2)CC1 (stereo not given) have pIC50 greater than or equal to 6?
Return: n

Enquiry: Quick check: does O=C(Nc1cccc(Cl)c1)N1CCCCC1c1cccnc1 (stereo not given) have pIC50 greater than or equal to 6?
Return: y

Enquiry: Quick check: does COCCn1cnc2cc(NC(=O)C3CCCCC3)cc(C(=O)N3CCc4sccc4C3)c21 have pIC50 greater than or equal to 6?
Return: n

Enquiry: Quick check: does COc1cc2c(cc1OC)[C@H]1[C@@H](C)c3ccc(OC)c(OC)c3CN1CC2 have pIC50 greater than or equal to 6?
Return: n

Enquiry: Quick check: does O=C(c1ccc(Cl)cc1)c1ccc(OC(=O)N2CCOCC2)cc1 have pIC50 greater than or equal to 6?
Return: n

Enquiry: Quick check: does Cc1c([N+](=O)[O-])c(C(=O)Nc2sc3c(c2C#N)CCC(C)C3)nn1C (stereo not given) have pIC50 greater than or equal to 6?
Return: n

Enquiry: Quick check: does Oc1c(-c2n[nH]c(CCc3ccccc3)n2)ncc2cccnc12 have pIC50 greater than or equal to 6?
Return: y

Enquiry: Quick check: does Clc1ccc(OCCN2CCCCC2c2cccnc2)c(Cl)c1 (stereo not given) have pIC50 greater than or equal to 6?
Return: y

Enquiry: Quick check: does O=S(=O)(NCC(c1cccnc1)N1CCN(c2ccc(F)cc2)CC1)c1cccs1 (stereo not given) have pIC50 greater than or equal to 6?
Return: y

Enquiry: Quick check: does O=C(CSc1ccc(-c2ccccn2)nn1)Nc1ccc(Cl)cc1 have pIC50 greater than or equal to 6?
Return: n

Enquiry: Quick check: does NC(=O)c1ncc(N[C@@H]2CCCNC2)nc1Nc1cccc(Cl)c1 have pIC50 greater than or equal to 6?
Return: y

Enquiry: Quick check: does CCCc1cc(N)nc(-c2cc(CCC)cc(N)n2)c1 have pIC50 greater than or equal to 6?
Return: y

Enquiry: Quick check: does N#Cc1c(Oc2cccc(Cl)c2)cccc1[N+](=O)[O-] have pIC50 greater than or equal to 6?
Return: y

Enquiry: Quick check: does CC(C)(C)C(=O)Nc1cc(C2CC2)nn1-c1nc2c(c(=O)[nH]1)CCCC2 have pIC50 greater than or equal to 6?
Return: y

Enquiry: Quick check: does O=C(NCc1ccncc1)c1ccccc1N1CCCN(C(=O)Cc2ccc(F)c(F)c2)CC1 have pIC50 greater than or equal to 6?
Return: y

Entry source: PubChem BioAssay AID1159565
